# Test system: HOP-92
# assay method text: NCI tumour cell line growth inhibition, 48 h
Activity calls are given as the source filed them. Cut-off read from the data, not from the text of the source: active = GI50 up to about 1.1 µM and inactive = higher.
Outcome codes: T (active), F (inactive)

{"compound": "CC(=O)Nc1cc(/C=C\\C(=O)N2CC(CCl)c3c2cc(N)c2ccccc32)n(C)n1 (stereo not given)", "assigned category": "T"}
{"compound": "O=CC1CCCc2ccccc21 (stereo not given)", "assigned category": "F"}
{"compound": "CCOC(=O)c1nc2ccccc2nc1Nc1cc(OC)c(OC)c(OC)c1", "assigned category": "F"}
{"compound": "O=C(O)CCc1nc2cc3ccccc3cc2[nH]c1=O", "assigned category": "F"}
{"compound": "CCCCCCCCCCCCCCCCOCC(COP(=O)(O)OCC1OC(n2cc(CC)c(=O)[nH]c2=O)CC1O)OC(=O)CCCCCCCCCCCCCCC (stereo not given)", "assigned category": "F"}
{"compound": "O=C1c2c(ccc3c2CCCC3)CC12Cc1ccccc1C2", "assigned category": "F"}
{"compound": "COc1cccc(CCn2c(N)c(-c3ccccc3)c3ccc([N+](=O)[O-])cc3c2=O)c1", "assigned category": "F"}
{"compound": "CCCCCC1=C2C(c3ccc(OC)cc3)=C(N)C(c3ccc(OC)cc3)=C3NC(=O)C(C=C1)C32 (stereo not given)", "assigned category": "F"}
{"compound": "Nc1ccc(-c2cssc2=S)cc1", "assigned category": "F"}
{"compound": "CN1OC(=O)N(C)C1c1ccccc1 (stereo not given)", "assigned category": "F"}
{"compound": "CC[C@@H](/C=C\\CCC1(C[C@H](O)CCC=C(C)C)OCCO1)O[Si](C(C)C)(C(C)C)C(C)C", "assigned category": "F"}
{"compound": "CCOc1ccccc1NC(=O)CCC(=O)NN", "assigned category": "F"}
{"compound": "O=C1C(Cl)C(c2cc3cc(Br)ccc3nc2Cl)N1c1c(Cl)cccc1Cl (stereo not given)", "assigned category": "F"}
{"compound": "CCCCC(C#N)(OP1(=O)OC(c2ccccc2)C(C)N1C)c1ccccc1 (stereo not given)", "assigned category": "F"}
{"compound": "COc1cc(C2C3=C(CCC3=O)Oc3cc4c(cc32)OCO4)cc(OC)c1OC (stereo not given)", "assigned category": "T"}
